- System: MDA-MB-231
- method: drug sensitivity score (DSS), CellTox Green (DSS (AUC-based score)); higher = stronger drug effect (viability inhibition or cytotoxicity); extreme values may be limits of the assay
- conditionSummary: incubation time: 72 h
experimentalEndpoint: drug sensitivity score
Answer with a bare number; do not write a unit.

Query: Which value of drug sensitivity score has been reported for CC(C)C(=O)Nc1ccc([N+](=O)[O-])c(C(F)(F)F)c1 [Flutamide] in the records?
Result: 0

Query: Which value of drug sensitivity score has been reported for "CCN(CC)CCOc1ccc(C(=C(Cl)c2ccccc2)c2ccccc2)cc1" in the records?
Result: 8.18

Query: Which value of drug sensitivity score has been reported for "CC(C)C[C@H](NC(=O)[C@H](CCc1ccccc1)NC(=O)CN1CCOCC1)C(=O)N[C@@H](Cc1ccccc1)C(=O)N[C@@H](CC(C)C)C(=O)[C@@]1(C)CO1" in the records?
Result: 24.1

Query: Which value of drug sensitivity score has been reported for "O=C(c1cc(Cc2n[nH]c(=O)c3ccccc23)ccc1F)N1CCN(C(=O)C2CC2)CC1" in the records?
Result: 1.54

Taken from the supplement of paper PMC4862054.
